assay_procedure: Selectivity index, ratio of IC50 for human ovarian epithelial cells to IC50 for human A2780 cells
Assay type: toxicity
details: human ovarian epithelial cells versus A2780 cells, read-out: Ratio IC50
Quick list: selectivity ratio per entry.
endpoint_name: selectivity ratio

- structure_as_smiles: "C#CCNCc1c2c3c(c(OC)c1OC)Oc1ccc(cc1)C[C@@H]1c4c(cc(OC)c(OC)c4Oc4ccc(cc4)C[C@H]3N(C)CC2)CCN1C"
  recorded_number: 5
- structure_as_smiles: "COc1cc2c3c(c1OC)Oc1ccc(cc1)C[C@@H]1c4c(c(CN(C)C)c(OC)c(OC)c4Oc4ccc(cc4)C[C@H]3N(C)CC2)CCN1C"
  recorded_number: 3
- structure_as_smiles: "COc1cc2c3c(c1OC)Oc1ccc(cc1)C[C@@H]1c4c(cc(OC)c(OC)c4Oc4ccc(cc4)C[C@H]3N(C)CC2)CCN1C"
  recorded_number: 5
